method: NCI Yeast Anticancer Drug Screen. Data for the rad50EPP+ strain (AID 151);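 note: 0% = growth of vehicle-treated control cultures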
condition.set: S. cerevisiae rad50 mutant strain, at 11.0 µM
Protocol: Growth inhibition of yeast strains with defined genetic alterations is measured as a screen for potential anti-cancer activity. Selected strains with alterations in DNA damage repair or cell cycle control were exposed to compounds and growth inhibition was measured relative to vehicle treated controls. The strain used in this assay is rad50EPP+
This is part of a sample that, as a whole, favours compounds with a hit. Of some 79,000 tested, about 15% had one in any assay. The source made the active and inactive calls. Cut-off read from the data, not from the text of the source: active = growth inhibition above about 70%; inactive = the rest.
Classes used: yes for active, no for inactive

>>> df
                                    compound  group_label
 0  CCOC(=O)C(Br)C(Br)c1ccccc1Cl (stereo not given)          yes
 1  CCC(=O)c1cc(C(=O)C(=S)SC)cc(C(=O)C(=S)SC)c1          yes
 2                   O/N=C\c1c(O)ccc2ccccc12           no
 3                c1ccc2[nH]c(-c3cscn3)nc2c1           no
 4       Cc1cc(C)c(NC(=S)NC(=O)c2ccccc2)cc1C           no
 5       CCCCOC(=O)Nc1ccc(C)c(NC(=O)OCCCC)c1           no
 6              CN(C)c1nc(=Nc2cccc(Cl)c2)ss1          yes
 7  CCCCC(CC)C(=O)[O][Sn]([CH2]CCC)([CH2]CCC)[O]C(=O)C(CC)CCCC (stereo not given)           no
 8                    O=c1[nH]c2ccc(Cl)cc2o1           no
 9        CN1CCN(C(=O)/C=C/C(=O)c2ccccc2)CC1           no
10  O=C(Oc1ccc2c(c1)CN(Cc1ccccc1)CO2)c1ccccc1           no
11  COc1cc([C@@H]2c3cc4c(cc3[C@@H](Nc3ccc(NC(=O)c5cc([N+](=O)[O-])cn5C)cc3)[C@H]3COC(=O)[C@H]23)OCO4)cc(OC)c1O           no
12  OC(CCNCc1ccccc1)c1ccc2ccccc2c1 (stereo not given)           no
13           N/C(=N/N=C/c1cc(Br)cc(Br)c1O)NO           no
14    OCC(CO)C(c1cccc2ccccc12)c1cccc2ccccc12           no
15             Cc1c(C)c(C)c(CSC(=N)N)c(C)c1C           no
16  CCN(CC)CCNc1ccc2ncn3c4cc(OC)c(OC)c(=O)c4c(O)c1c23           no
17        CCOC(=O)/C(=C\c1ccc(C#N)cc1)C(C)=O           no
18  O=[N+]([O-])c1cc(F)c(F)cc1Sc1cc(F)c(F)cc1[N+](=O)[O-]          yes
19                         S=c1sc2c(s1)SCCS2           no
20     CCC(C)NC1=NCC(C)S1 (stereo not given)           no
21                      CCCCCOC(=S)SC(=O)OCC           no
22             Cc1cccc(/C=N/NC(=S)N2CCCC2)n1           no
23                 Cc1ccccc1N=Cc1cc(Cl)ccc1O           no
24  CN(C)CCCCN1c2ccccc2Sc2ccc(N=[N+]=[N-])cc21           no
25                     Cc1ccc(Sc2ccccc2N)cc1           no
26  O=C(O)CCCC1CCCc2c1ccc1ccccc21 (stereo not given)           no
27  C=C(C(=C)n1nnc(C(=O)OC)c1C(=O)OC)n1nnc(C(=O)OC)c1C(=O)OC           no
28  COC(=O)C1(C)CCc2c(ccc3ccccc23)C1=O (stereo not given)           no
29  Cc1ccc2c(c1)C1(SC(C)C(=O)N1c1ccc(Cl)cc1)C(=O)N2 (stereo not given)           no
30                CC(C)=NOC(=O)Nc1ccc(Cl)cc1           no
31  CCCCCCCCCCCC1N=C(N)NC(CCCO)=C1C(=O)OC (stereo not given)          yes
32          Cc1cc(=O)oc2c(C)c3occc(=O)c3cc12           no
33             COC(=O)/C=C(/CC(=O)OC)C(=O)OC           no
34             Cc1cccc2c1nc1ccc(Cl)cc1[n+]2C           no

---

Parameter growth inhibition: see the listing below.
method: NCI Yeast Anticancer Drug Screen. Data for the mec2-1 strain (AID 157)
condition.set: S. cerevisiae mec2-1 strain, at 3.7 µM, stronger effect = higher value
Experimental: Growth inhibition of yeast strains with defined genetic alterations is measured as a screen for potential anti-cancer activity. Selected strains with alterations in DNA damage repair or cell cycle control were exposed to compounds and growth inhibition was measured relative to vehicle treated controls. The strain used in this assay is mec2-1
Compounds without any hit were thinned out: in the full panel of roughly 79,000, 15% have a hit.
metric: growth inhibition (%)

>>> df
                                    compound             metric  output_unit  result_number
 0  OC1(c2ccccc2)CCCc2ccc(Cl)cc21 (configuration not stated)  growth inhibition            %              5
 1  CCC1(OC(=O)CN2CCN(CCO)CC2)C(=O)OCc2c1cc1n(c2=O)Cc2cc3ccccc3nc2-1 (configuration not stated)  growth inhibition            %            -19
 2  CCCCCCCCCCCC1N=C(N)NC(CCCO)=C1C(=O)OC (configuration not stated)  growth inhibition            %             99
 3                   CCCCCCSc1ncnc2[nH]ncc12  growth inhibition            %             -2
 4                  Cc1sc2ccc3ccccc3c2[n+]1C  growth inhibition            %            -36
 5  C=C(C(=C)n1nnc(C(=O)OC)c1C(=O)OC)n1nnc(C(=O)OC)c1C(=O)OC  growth inhibition            %             -5
 6  Cc1cc2c(cc1C)[n+]([O-])c(-c1nc3ccccc3s1)c(N)[n+]2[O-]  growth inhibition            %             21
 7  Cc1cc(-c2cc(C)c(O)c(C(C)(C)C)c2)cc(C(C)(C)C)c1O  growth inhibition            %            -23
 8  C/C(=N\Nc1ccc([N+](=O)[O-])cc1[N+](=O)[O-])c1sc(-n2nc(-c3ccccc3)cc2-c2ccccc2)nc1C  growth inhibition            %             16
 9                COc1cc(O)c(O)c(C(C)(C)C)c1  growth inhibition            %             -1
10        CCc1c[n+]([O-])c(C)cc1[N+](=O)[O-]  growth inhibition            %              1
11  CCOC(=O)[C@H]1Nc2ccc(OC)cc2C2c3ccccc3CC21 (some centres not stated)  growth inhibition            %            -21
12                         S=c1sc2c(s1)SCCS2  growth inhibition            %              2
13      O=P(NC1CCCCC1)(OCc1ccccc1)OCc1ccccc1  growth inhibition            %              1
14        O=C1C=C(Cl)C(=O)C(c2ccc(Cl)cc2)=C1  growth inhibition            %             34
15  C=C1C(=O)OC2CC1C(OC(C)=O)C/C(C)=C/CC/C(C)=C\CCC2(C)O (configuration not stated)  growth inhibition            %             17
16      O=C(CSC(=S)N1CCCCC1)Nc1nc2c(s1)CCCC2  growth inhibition            %             -9
17  O=C(Nc1ccc(Cl)cc1)Nc1nnc2nc(C(C(=O)c3cccc([N+](=O)[O-])c3Cl)c3nc4nnc(NC(=O)Nc5ccc(Cl)cc5)n4[nH]c3=O)c(=O)[nH]n12  growth inhibition            %             -2
18  Cn1c(-c2ccc(/C=N\N3CCN(/N=C/c4ccc(-c5c[n+]6ccccc6n5C)cc4)CC3)cc2)c[n+]2ccccc12  growth inhibition            %            -17
19  CCCCNC1CCC2(SCCS2)c2[nH]c3ccccc3c21 (configuration not stated)  growth inhibition            %             -1
20  CN(C)CCOC1(Cc2ccc(F)cc2)CCC(C(C)(C)C)CC1 (configuration not stated)  growth inhibition            %            -10
21    OCC(CO)C(c1cccc2ccccc12)c1cccc2ccccc12  growth inhibition            %             21

Values compiled from PubChem BioAssay (NCI).
